test: in vitro; conditions: human, Caco-2, pH 7.4
Items are presented alongside their recorded Papp B→A at 90 min, 10 μM.

Some solved cases for reference:
[in] Query: Papp B→A at 90 min, 10 μM; subject: COc1ccnc(CCN(Cc2ncccc2C)Cc2ncccc2C)c1
[out] > 10 ×10⁻⁶ cm/s

[in] Query: Papp B→A at 90 min, 10 μM; subject: COc1ccc(CCN(Cc2ncccc2C)Cc2ncccc2C)nc1
[out] > 10 ×10⁻⁶ cm/s

[in] Query: Papp B→A at 90 min, 10 μM; subject: Clc1cccnc1CN(CCc1cnc[nH]1)Cc1ncccc1-c1ccccc1
[out] > 10 ×10⁻⁶ cm/s

New cases:
[in] Query: Papp B→A at 90 min, 10 μM; subject: Cc1cccnc1CN(CCc1ccccn1)C(C)c1ccccn1 (stereo not shown)
[out] > 10 ×10⁻⁶ cm/s

[in] Query: Papp B→A at 90 min, 10 μM; subject: Cc1cccnc1CN(CCc1ccccn1)Cc1ncccc1Cl
[out] > 10 ×10⁻⁶ cm/s

[in] Query: Papp B→A at 90 min, 10 μM; subject: Cc1cccnc1CN(CCc1cnc[nH]1)C(C)c1ccccn1 (stereo not shown)
[out] > 10 ×10⁻⁶ cm/s

[in] Query: Papp B→A at 90 min, 10 μM; subject: CC(c1ccccn1)N(CCc1cnc[nH]1)Cc1ccccn1 (stereo not shown)
[out] > 10 ×10⁻⁶ cm/s

[in] Query: Papp B→A at 90 min, 10 μM; subject: Clc1cccnc1CN(CCc1c[nH]cn1)[C@H]1CCCc2cccnc21
[out] > 10 ×10⁻⁶ cm/s

[in] Query: Papp B→A at 90 min, 10 μM; subject: CC(C)c1cccnc1CN(CCC(N)=O)Cc1ncccc1-c1ccccc1
[out] > 10 ×10⁻⁶ cm/s

[in] Query: Papp B→A at 90 min, 10 μM; subject: Cc1cccnc1CN(CCc1c[nH]cn1)Cc1nc2cccc(F)c2n1C
[out] > 10 ×10⁻⁶ cm/s

[in] Query: Papp B→A at 90 min, 10 μM; subject: CC(c1ccccn1)N(CCC(N)=O)Cc1ccccn1 (stereo not shown)
[out] > 10 ×10⁻⁶ cm/s

[in] Query: Papp B→A at 90 min, 10 μM; subject: Cc1cccnc1CN(CCC(N)=O)Cc1ncccc1C
[out] > 10 ×10⁻⁶ cm/s

[in] Query: Papp B→A at 90 min, 10 μM; subject: Cc1cccnc1CN(CCc1ccccn1)Cc1ncccc1C
[out] > 10 ×10⁻⁶ cm/s

[in] Query: Papp B→A at 90 min, 10 μM; subject: COc1cccc(CCN(Cc2ncccc2C)Cc2ncccc2C)n1
[out] > 10 ×10⁻⁶ cm/s

[in] Query: Papp B→A at 90 min, 10 μM; subject: Cc1cccnc1CN(CCn1ccccc1=O)Cc1ncccc1C
[out] > 10 ×10⁻⁶ cm/s

[in] Query: Papp B→A at 90 min, 10 μM; subject: Clc1cccnc1CN(CCc1cnc[nH]1)Cc1ncccc1Cl
[out] > 10 ×10⁻⁶ cm/s

----------
Assay: in vitro
Details: human, Caco-2, pH 7.4
Experimental: The goal of this assay was to evaluate the intestinal absorption potential of drug candidates using Caco-2 cell lines. Experimental Procedure • 1. Pre-warm Pre-warm HBSS Buffer in 37° C. water bath • 2. Sonicate Take compounds from −20° C., sonicate for a few minutes (no less than 1 minute) • 3. Solution preparation […]
Items are presented alongside their recorded efflux ratio at 90 min, 10 μM.

[in] Query: efflux ratio at 90 min, 10 μM; subject: Cc1cccnc1CN(CCc1c[nH]cn1)Cc1nc2cccc(F)c2n1C [Compound I-40]
[out] 10 to 30

[in] Query: efflux ratio at 90 min, 10 μM; subject: Cc1cccnc1CN(CCc1cnc[nH]1)Cc1ncccc1C [Compound I-9]
[out] 10 to 30

[in] Query: efflux ratio at 90 min, 10 μM; subject: c1cnc2c(c1)CCC[C@@H]2N(CCc1cscn1)Cc1nc2ccccc2[nH]1 [Compound I-20]
[out] 0.1 to 10

[in] Query: efflux ratio at 90 min, 10 μM; subject: Clc1cccnc1CN(CCc1cnc[nH]1)Cc1ncccc1-c1ccccc1 [Compound I-39]
[out] 0.1 to 10

[in] Query: efflux ratio at 90 min, 10 μM; subject: Cc1cccnc1CN(CCc1cccc(O)n1)Cc1ncccc1C [Compound I-59]
[out] 0.1 to 10

Now look at this entry.
[in] Query: efflux ratio at 90 min, 10 μM; subject: Cn1c(CN(CCc2c[nH]cn2)[C@H]2CCCc3cccnc32)nc2cccc(F)c21 [Compound I-44]
[out] 0.1 to 10
